biological target: TYK2-JH2 domain (Homo sapiens); construct: JAK1-JH2 domain or TYK2-JH2 domain enzyme in assay buffer; experiment: Binding activity test for JH2 domain of TYK2 (Tb-antibody/tracer FRET); settings: JH2 domain enzyme; 60 min at 25°C, then 4°C overnight; read-out: TYK2 JH2 Binding IC50
Sequence (P29597 589-875 limits assumed): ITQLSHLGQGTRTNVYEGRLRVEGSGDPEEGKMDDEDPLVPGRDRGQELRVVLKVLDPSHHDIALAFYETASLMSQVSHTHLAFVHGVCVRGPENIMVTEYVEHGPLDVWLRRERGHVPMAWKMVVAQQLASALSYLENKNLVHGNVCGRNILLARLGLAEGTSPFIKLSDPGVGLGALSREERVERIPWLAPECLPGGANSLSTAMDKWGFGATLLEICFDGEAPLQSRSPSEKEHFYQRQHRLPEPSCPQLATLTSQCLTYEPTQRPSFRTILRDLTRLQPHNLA
measurement label: pIC50
Remember, pIC50 is on a log scale: it is -log10 of the molar concentration.

Worked cases, answers included:
>>> measured("COC(=O)c1cnc(NC(=O)C2CC2)cc1Nc1nn(C)c2ccc(C(C)C(F)(F)F)c(OC)c12 (stereo not shown)")
9.43
>>> measured("CCOC(=O)c1cnc(NC(=O)C2CC2)nc1Nc1cccc(-c2ncn(C)n2)c1OC")
8.14
>>> measured("[2H]C([2H])([2H])NC(=O)c1cnc(NC(=O)[C@@H]2C[C@@H]2F)cc1Nc1cnn2ccc(C(O)C(F)(F)F)c(OC)c12 (single isomer, unassigned) [Example 15A]")
10.11
>>> measured("COC(=O)c1cnc(NC(=O)C2CC2)cc1Nc1nn(C)c2ccc(C(OC)C(C)C)c(OC)c12 (stereo not shown)")
9.03
>>> measured("COC(=O)c1cnc(NC(=O)C2CC2)cc1Nc1nsc2ccc(C(OC)C(F)(F)F)c(OC)c12 (single isomer, unassigned) [Example 67B]")
9.49

Using the record for [2H]C([2H])([2H])NC(=O)c1cnc(NC(=O)C2CC2)cc1Nc1cnn2ccc(C)c(NC)c12 , report its pIC50.
8.63

Proceed to COC(=O)c1cnc(NC(=O)C2CC2)cc1Nc1c2c(OC)c(C(C)C(F)(F)F)ccc2nn1C (stereo not shown)
7.04

###

// IC50 lookup, one value per entry
target: JAK1-JH2 domain (Homo sapiens); construct: JAK1-JH2 domain or TYK2-JH2 domain enzyme in assay buffer; assay: Binding activity test for JH2 domain of JAK1 (Tb-antibody/tracer FRET); conditions: JH2 domain enzyme; 60 min at 25°C, then 4°C overnight; read-out: JAK1 JH2 Binding IC50
Sequence (P23458 583-855 limits assumed): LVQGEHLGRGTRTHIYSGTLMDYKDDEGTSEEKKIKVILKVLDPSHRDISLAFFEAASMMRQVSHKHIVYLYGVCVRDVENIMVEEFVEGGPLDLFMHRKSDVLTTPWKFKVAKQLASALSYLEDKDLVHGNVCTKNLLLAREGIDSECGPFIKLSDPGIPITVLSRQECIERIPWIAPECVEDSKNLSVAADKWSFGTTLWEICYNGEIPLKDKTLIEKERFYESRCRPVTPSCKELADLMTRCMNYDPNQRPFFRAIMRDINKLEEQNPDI

Worked cases, answers included:
>>> measured("COCCn1ccc(Nc2cc(Nc3nn(C)c4ccc([C@H](OC)C(F)(F)F)c(OC)c34)c(C(=O)OC)cn2)n1")
"> 298 nM"
>>> measured("[2H]C([2H])([2H])NC(=O)c1nnc(NC(=O)C2CC2)cc1Nc1cccc(-c2ncn(C)n2)c1C(C)=O")
"> 298 nM"
>>> measured("CCOC(=O)c1cnc(NC(=O)C2CC2)nc1Nc1cccc(-c2ncn(C)n2)c1OC")
"> 298 nM"

Okay, next one:
Using the record for COC(=O)c1nnc(NC(=O)C2CC2)cc1Nc1cccc(-c2ncn(C)n2)c1OC , report its IC50.
> 298 nM

###

assay: Kinetic solubility; type: physicochemical; settings: phosphate buffer, pH 7.4, aqueous buffer, kinetic from dmso stock, 100 mM pH 7.4 phosphate buffer, 1% DMSO, room temperature, read-out: Kinetics Solubility_PBS7.4
measurement label: solubility kinetic at 2 h (µM)
The reply should be a number in µM, with the unit left off.

>>> measured("[2H]C([2H])([2H])NC(=O)c1cnc(NC(=O)C2CC2)cc1Nc1cnn2ccc([C@@H](O)C(F)(F)F)c(OC)c12 [Example 7B]")
55.8

Okay, next one:
Using the record for COC(=O)c1cnc(NC(=O)C2CC2)cc1Nc1nn(C)c2ccc([C@H](OC)C(F)(F)F)c(OC)c12 [Example 45B] , report its solubility kinetic at 2 h.
9.37

###

molecular target: TYK2-JH2 domain (Homo sapiens); construct: JAK1-JH2 domain or TYK2-JH2 domain enzyme in assay buffer; assay: Binding activity test for JH2 domain of TYK2 (Tb-antibody/tracer FRET); details: ratio of JAK1 JH2 to TYK2 JH2 binding IC50
// JAK1/TYK2 selectivity lookup, one value per entry

Worked cases, answers included:
>>> measured("[2H]C([2H])([2H])NC(=O)c1cnc(NC(=O)C2CC2)cc1Nc1cnn2ccc([C@H](OC([2H])([2H])[2H])C(F)(F)F)c(OC)c12 [Example 28]")
102.5
>>> measured("[2H]C([2H])([2H])OC(=O)c1cnc(NC(=O)C2CC2)cc1Nc1ncn2ncc(C(OC)C(F)(F)F)c2c1OC (stereo not shown) [Example 81]")
">74.25"
>>> measured("[2H]C([2H])([2H])NC(=O)c1cnc(Nc2ccc(F)cn2)cc1Nc1nn(C)c2ccc([C@H](OC)C(F)(F)F)c(OC)c12 [Example 171]")
99.17

Using the record for COc1c([C@H](OC)C(F)(F)F)ccn2ncc(Nc3cc(NC(=O)C4CC4)ncc3C(=O)CC#N)c12 [Example 91] , report its JAK1/TYK2 selectivity.
>56.93

###

Molecular target: JAK1-JH2 domain (Homo sapiens)
Construct: JAK1-JH2 domain or TYK2-JH2 domain enzyme in assay buffer
Assay: Binding activity test for JH2 domain of JAK1 (Tb-antibody/tracer FRET)
Conditions: JH2 domain enzyme; 60 min at 25°C, then 4°C overnight; read-out: JAK1 JH2 Binding IC50
Description: Binding Activity test for JH2 domain of JAK1 and TYK2 […] Add 8μL/well in echo source plate, echo will add 75nL/well with 3-fold serial dilution for 11 points in assay plate. 75nL DMSO for high control and low control. […] For low control, add 5μL/well assay buffer. And then spin down at 1000rpm and centrifuge for 30 seconds. […] Read by envision in FRET mode. The Luminescence value was recorded by a multi-label reader Envision (PerkinElmer). […]
// log10(IC50) lookup, one value per entry
A difference of one corresponds to tenfold IC50; all values are log10 with IC50 in nM.

>>> measured("[2H]C([2H])([2H])CC(=O)c1cnc(NC(=O)C2CC2)nc1Nc1cccc(-c2cnn(C)n2)c1OC [Example 167]")
1.51
>>> measured("[2H]C([2H])([2H])NC(=O)c1cnc(NC(=O)[C@@H]2C[C@@H]2F)cc1Nc1cnn2cnc(C(C)C(F)(F)F)c(OC)c12 (stereo partly drawn) [Example 38]")
2.16
>>> measured("[2H]C([2H])([2H])OC(=O)c1cnc(NC(=O)C2CC2)cc1Nc1cnn2ccc([C@H](OC)C(F)(F)F)c(OC)c12 [Example 79]")
1.63
>>> measured("CCn1nc(Nc2cc(NC(=O)C3CC3)ncc2C(=O)OC)c2c(OC)c(C(O)C(F)(F)F)ccc21 (single isomer, unassigned) [Example 70A]")
1.34
>>> measured("[2H]C([2H])([2H])NC(=O)c1cnc(NC(=O)C2CC2)cc1Nc1cnn2ccc([C@H](OC(C)=O)C(F)(F)F)c(OC)c12 [Example 43]")
1.85
>>> measured("[2H]C([2H])([2H])CC(=O)c1cnc(NC(=O)C2CC2)cc1Nc1nn(C)c2ccc(C(OC)C(F)(F)F)c(OC)c12 (single isomer, unassigned) [Example 65B]")
1.10

Using the record for [2H]C([2H])([2H])NC(=O)c1cnc(NC(=O)C2CC2)cc1Nc1nn(C)c2ccc([C@H](O)C(F)(F)F)c(OC)c12 [Example 49A] , report its log10(IC50).
0.72

Proceed to COC(=O)c1cnc(NC(=O)C2CC2)cc1Nc1nccc(-c2cnn(C)n2)c1OC [Example 62]
2.19

Proceed to [2H]C([2H])([2H])NC(=O)c1cnc(NC(=O)[C@@H]2C[C@@H]2F)cc1Nc1cnn2ccc(C(O)C(F)(F)F)c(OC)c12 (single isomer, unassigned) [Example 15A]
1.10

Proceed to [2H]C([2H])([2H])NC(=O)c1cnc(NC(=O)C2CC2)cc1Nc1cnn2ccc(C#N)c(OC)c12 [Example 12]
1.32

Proceed to CCOC(c1ccc2c(c(Nc3cc(NC(=O)C4CC4)ncc3C(=O)OC)nn2C)c1OC)C(F)(F)F (single isomer, unassigned) [Example 106B]
1.20

Proceed to COc1c([C@H](OC)C(F)(F)F)ccc2c1c(Nc1cc(NC(=O)C3CC3)ncc1C(=O)O)nn2C [Example 77]
2.27

Proceed to [2H]C([2H])([2H])CC(=O)c1cnc(NC(=O)C2CC2)cc1Nc1nc2ccc(N3CC(OC)C3)cn2n1 [Example 64]
1.54

Proceed to [2H]C([2H])([2H])NC(=O)c1cnc(NC(=O)C2CC2)cc1Nc1cnn2cnc(C(C)C(F)(F)F)c(OC)c12 (stereo not drawn) [Example 37]
2.05

###

molecular target: JAK1-JH2 domain (Homo sapiens); construct: JAK1-JH2 domain or TYK2-JH2 domain enzyme in assay buffer; assay: Binding activity test for JH2 domain of JAK1 (Tb-antibody/tracer FRET); conditions: JH2 domain enzyme; 60 min at 25°C, then 4°C overnight; read-out: JAK1 JH2 Binding IC50
measurement label: pIC50
Remember, pIC50 is on a log scale: it is -log10 of the molar concentration.

Worked cases, answers included:
>>> measured("[2H]C([2H])([2H])NC(=O)c1nnc(NC(=O)C2CC23CC3)cc1Nc1cnn2ccc([C@H](O)C(F)(F)F)c(OC)c12 (single isomer, unassigned) [Example 82B]")
8.20
>>> measured("[2H]C([2H])([2H])C([2H])([2H])C(=O)c1cnc(NC(=O)C2CC2)cc1Nc1nn(C)c2ccc([C@H](O)C(F)(F)F)c(OC)c12")
8.16
>>> measured("COC(=O)c1cnc(NC(=O)C2CC2)cc1Nc1cccc(-c2ncn(C)n2)c1OC")
7.92
>>> measured("COc1c(-c2cnn(C)n2)ccnc1Nc1cc(NC(=O)C2CC2)ncc1C(C)(F)F")
8.20

Okay, next one:
Using the record for [2H]C([2H])([2H])NC(=O)c1cnc(Nc2ccc(F)cn2)cc1Nc1nn(C)c2ccc([C@H](OC)C(F)(F)F)c(OC)c12 , report its pIC50.
7.77
